Target: Sodium-dependent serotonin transporter (Homo sapiens, UniProt P31645);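 note: block of [3H]-serotonin uptake through human SERT in HEK293 cells, read by a fluorescence-based transporter assay after 15–20 min exposure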
Sequence (P31645 whole entry, looked up): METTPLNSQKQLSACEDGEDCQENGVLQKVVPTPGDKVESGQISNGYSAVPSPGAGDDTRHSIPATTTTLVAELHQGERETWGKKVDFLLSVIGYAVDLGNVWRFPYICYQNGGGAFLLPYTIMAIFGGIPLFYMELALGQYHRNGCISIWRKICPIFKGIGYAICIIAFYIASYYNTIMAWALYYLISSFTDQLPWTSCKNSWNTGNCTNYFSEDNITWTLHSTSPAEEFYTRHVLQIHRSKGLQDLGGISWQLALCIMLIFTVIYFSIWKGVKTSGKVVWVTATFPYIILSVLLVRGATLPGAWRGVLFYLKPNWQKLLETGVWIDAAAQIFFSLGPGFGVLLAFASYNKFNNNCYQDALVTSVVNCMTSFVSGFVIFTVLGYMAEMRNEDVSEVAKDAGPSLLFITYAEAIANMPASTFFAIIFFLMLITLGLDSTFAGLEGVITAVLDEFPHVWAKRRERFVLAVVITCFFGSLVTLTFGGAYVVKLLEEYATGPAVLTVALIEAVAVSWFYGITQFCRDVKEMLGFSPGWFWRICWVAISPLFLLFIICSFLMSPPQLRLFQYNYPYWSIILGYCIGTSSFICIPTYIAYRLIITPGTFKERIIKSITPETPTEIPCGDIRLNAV
Conditions: HEK293, at 100 µM
Description: Inhibition of [3H]-serotonin reuptake at human SERT expressed in HEK293 cells at 100 uM after 15 to 20 mins by fluorescence neurotransmitter transporter assay
# inhibition >= 40% gives 1 (yes), anything below gives 0 (no)

Some entries whose results are on file:
SMILES_DATA	CLASS_ASSIGNMENT
COc1ccc(/C=C(/Cc2ccc(OC)cc2)[N+](=O)[O-])cc1	0 (no)
O=[N+]([O-])/C(=C\c1ccc(Cl)cc1)Cc1ccc(Cl)cc1	0 (no)
O=[N+]([O-])/C(=C\c1ccc2c(c1)OCO2)Cc1ccc2c(c1)OCO2	0 (no)
COc1ccc(CC(Cc2ccc(OC)cc2)NC=O)cc1	0 (no)
CSc1ccc(CC(Cc2ccc(SC)cc2)NC(C)=O)cc1	0 (no)

Evaluate O=CNC(Cc1ccc2c(c1)OCO2)Cc1ccc2c(c1)OCO2 : inhibition at minimum 40%?
1 (yes)

Try the compound CSc1ccc(CC(N)Cc2ccc(SC)cc2)cc1
1 (yes)

Try the compound COc1ccc(CC(N)Cc2ccc(OC)cc2)cc1
1 (yes)

Try the compound CSc1ccc(/C=C(/Cc2ccc(SC)cc2)[N+](=O)[O-])cc1
0 (no)

Try the compound NC(Cc1ccc2c(c1)OCO2)Cc1ccc2c(c1)OCO2
1 (yes)

Try the compound CCNC(Cc1ccc(SC)cc1)Cc1ccc(SC)cc1
1 (yes)

Try the compound CSc1ccc(CC(Cc2ccc(SC)cc2)NC=O)cc1
1 (yes)
